- system_tested: human androgen receptor (hAR) (Homo sapiens)
- Construct: made in house; host or cells: baculovirus/Sf9 insect cells (crude extract)
- assay_notes: Competitive binding analysis on baculovirus/Sf9 generated hAR extracts with 3H-DHT tracer
- settings: hAR extract, 1 nM 3H-DHT, one hour at 4° C; mean of multiple tests; read-out: AR Binding IC50
measured_parameter: IC50
Enter the number, and then the unit.

Solved entries:
{"columns": ["compound", "system_tested", "measurement"],
 "data": [
  ["CCCC(Oc1ccc(C#N)c(C(F)(F)F)c1)C(=O)N[C@@H](C)c1ccc(O)cc1 (stereo in doubt) [Example 118]", "human androgen receptor (hAR) (Homo sapiens)", "1010 nM"],
  ["COc1ccc([C@H](C)NC(=O)C(CC(C)C)Oc2ccc(C#N)c(C(F)(F)F)c2)cc1 (stereo in doubt) [Example 121]", "human androgen receptor (hAR) (Homo sapiens)", "145 nM"],
  ["COc1cccc(CNC(=O)C(CC(C)C)Oc2ccc(C#N)c(C(F)(F)F)c2)c1 (stereo not shown) [Example 33]", "human androgen receptor (hAR) (Homo sapiens)", "62 nM"]
]}

// recorded IC50 for CCCC(Oc1ccc(C#N)c(C(F)(F)F)c1)C(=O)NCCCSC (stereo not shown) [Example 89] : 486 nM

* * *

- system_tested: androgen receptor (Homo sapiens, UniProt P10275)
- assay_notes: AR antagonist cell assay (MDA-MB453-MMTV clone 54-19 luciferase reporter, 100 pM DHT)
- Type: cell-based
- settings: MDA-MB453-MMTV clone 54-19, inhibition of 100 pM DHT induction, 17 hr; mean of multiple tests; read-out: AR Cell IC50
Recorded pIC50 for the following molecules
A value of pIC50 is the negative decimal logarithm of a concentration given in moles per litre.

Solved cases (5 shown):
{"columns": ["molecule", "system_tested", "measured_parameter", "measurement"],
 "data": [
  ["CC(C)CC(Oc1ccc(C#N)c(C(F)(F)F)c1)C(=O)NCc1ccc2c(c1)OCO2 (centres unmarked)", "androgen receptor (Homo sapiens, UniProt P10275)", "pIC50", 6.10],
  ["CCC[C@@H](Oc1ccc(C#N)c(C(F)(F)F)c1)C(=O)NCc1ccccc1", "androgen receptor (Homo sapiens, UniProt P10275)", "pIC50", 7.49],
  ["CCCC(Oc1ccc(C#N)c(C(F)(F)F)c1)C(=O)NCCc1c[nH]c2ccccc12 (centres unmarked)", "androgen receptor (Homo sapiens, UniProt P10275)", "pIC50", 7.19],
  ["CC(C)CC(Oc1ccc(C#N)c(C(F)(F)F)c1)C(=O)NC(C)c1cccs1 (centres unmarked)", "androgen receptor (Homo sapiens, UniProt P10275)", "pIC50", 6.40],
  ["CCC(Oc1ccc(C#N)c(C(F)(F)F)c1)C(=O)NCc1ccccc1 (centres unmarked)", "androgen receptor (Homo sapiens, UniProt P10275)", "pIC50", 6.25]
]}

Form: molecule = CC(C)C(Oc1ccc(C#N)c(C(F)(F)F)c1)C(=O)NCc1ccccc1 (centres unmarked) ; pIC50 = 6.25

Recorded result, CCCC(Oc1ccc(C#N)c(C(F)(F)F)c1)C(=O)NCc1ccccc1OC (centres unmarked) , pIC50: 6.89

pIC50 for CCCC(Oc1ccc(C#N)c(C(F)(F)F)c1)C(=O)NCc1ccc(OC)cc1 (centres unmarked) is 6.20

Entry CCCC(Oc1ccc(C#N)c(C(F)(F)F)c1)C(=O)NC(C)c1ccc(OC)cc1 (centres unmarked) — recorded pIC50 = 6.17

# pIC50 (molecule: CC(C)CC(Oc1ccc(C#N)c(C(F)(F)F)c1)C(=O)NCCc1c[nH]c2ccccc12 (centres unmarked) ) is 7.00

* * *

- system_tested: human androgen receptor (hAR) (Homo sapiens, UniProt P10275)
- Construct: made in house; host or cells: baculovirus/Sf9 insect cells (crude extract)
- Sequence (P10275 1-920): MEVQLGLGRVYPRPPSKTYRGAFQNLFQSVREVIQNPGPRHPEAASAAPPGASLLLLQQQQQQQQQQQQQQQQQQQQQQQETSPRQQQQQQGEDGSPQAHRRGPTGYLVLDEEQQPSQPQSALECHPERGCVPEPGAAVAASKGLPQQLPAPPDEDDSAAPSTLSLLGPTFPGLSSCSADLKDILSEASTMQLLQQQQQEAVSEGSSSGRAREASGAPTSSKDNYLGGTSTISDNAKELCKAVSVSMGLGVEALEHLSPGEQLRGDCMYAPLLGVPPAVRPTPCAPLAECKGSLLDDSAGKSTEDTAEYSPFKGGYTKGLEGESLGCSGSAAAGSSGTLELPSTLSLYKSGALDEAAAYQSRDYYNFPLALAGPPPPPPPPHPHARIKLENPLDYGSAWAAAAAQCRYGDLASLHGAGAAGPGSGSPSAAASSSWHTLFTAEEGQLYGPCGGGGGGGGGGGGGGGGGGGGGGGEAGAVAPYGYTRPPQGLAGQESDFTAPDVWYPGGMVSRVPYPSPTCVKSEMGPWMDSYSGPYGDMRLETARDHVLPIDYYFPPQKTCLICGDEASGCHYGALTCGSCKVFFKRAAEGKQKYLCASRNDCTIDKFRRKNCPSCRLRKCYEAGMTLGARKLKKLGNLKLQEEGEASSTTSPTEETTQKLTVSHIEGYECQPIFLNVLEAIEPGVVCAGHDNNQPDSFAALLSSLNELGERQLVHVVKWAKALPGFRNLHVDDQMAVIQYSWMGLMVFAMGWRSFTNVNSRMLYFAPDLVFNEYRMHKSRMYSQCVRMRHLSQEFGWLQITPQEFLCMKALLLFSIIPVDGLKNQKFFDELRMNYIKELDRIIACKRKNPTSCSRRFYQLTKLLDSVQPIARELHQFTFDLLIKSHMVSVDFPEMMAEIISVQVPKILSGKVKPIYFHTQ
- assay_notes: Competitive binding analysis on baculovirus/Sf9 generated hAR extracts with 3H-DHT tracer
- settings: hAR extract, 1 nM 3H-DHT, one hour at 4° C; mean of multiple tests; read-out: AR Binding IC50
measured_parameter: pIC50
Scale note: pIC50 = -log10(concentration in M).

{"columns": ["compound", "pIC50"],
 "data": [
  ["COc1ccccc1NC(=O)C(CC(C)C)Oc1ccc(C#N)c(C(F)(F)F)c1 (stereo not drawn) [Example 87]", 6.92],
  ["CCCC(Oc1ccc(C#N)c(C(F)(F)F)c1)C(=O)NCc1ccc2c(c1)OCO2 (stereo not drawn) [Example 29]", 6.74],
  ["CSCCCNC(=O)C(CC(C)C)Oc1ccc(C#N)c(C(F)(F)F)c1 (stereo not drawn) [Example 21]", 6.44],
  ["CCCC(Oc1ccc(C#N)c(C(F)(F)F)c1)C(=O)NCc1ccc2c(c1)CCO2 (stereo not drawn) [Example 30]", 6.87],
  ["CCCC(Oc1ccc(C#N)c(C(F)(F)F)c1)C(=O)NC1CCc2ccccc21 (stereo not drawn) [Example 57]", 6.84]
]}

Now turn to the next compound.
Field pIC50 (entry CCCC(Oc1ccc(C#N)c(C(F)(F)F)c1)C(=O)NCCc1ccccc1OC (stereo not drawn) [Example 51] ) reads 6.42

* * *

Below, each entry is listed alongside its reported pIC50.
- system_tested: human androgen receptor (hAR) (Homo sapiens, UniProt P10275)
- Construct: made in house; host or cells: baculovirus/Sf9 insect cells (crude extract)
- Sequence (P10275 1-920): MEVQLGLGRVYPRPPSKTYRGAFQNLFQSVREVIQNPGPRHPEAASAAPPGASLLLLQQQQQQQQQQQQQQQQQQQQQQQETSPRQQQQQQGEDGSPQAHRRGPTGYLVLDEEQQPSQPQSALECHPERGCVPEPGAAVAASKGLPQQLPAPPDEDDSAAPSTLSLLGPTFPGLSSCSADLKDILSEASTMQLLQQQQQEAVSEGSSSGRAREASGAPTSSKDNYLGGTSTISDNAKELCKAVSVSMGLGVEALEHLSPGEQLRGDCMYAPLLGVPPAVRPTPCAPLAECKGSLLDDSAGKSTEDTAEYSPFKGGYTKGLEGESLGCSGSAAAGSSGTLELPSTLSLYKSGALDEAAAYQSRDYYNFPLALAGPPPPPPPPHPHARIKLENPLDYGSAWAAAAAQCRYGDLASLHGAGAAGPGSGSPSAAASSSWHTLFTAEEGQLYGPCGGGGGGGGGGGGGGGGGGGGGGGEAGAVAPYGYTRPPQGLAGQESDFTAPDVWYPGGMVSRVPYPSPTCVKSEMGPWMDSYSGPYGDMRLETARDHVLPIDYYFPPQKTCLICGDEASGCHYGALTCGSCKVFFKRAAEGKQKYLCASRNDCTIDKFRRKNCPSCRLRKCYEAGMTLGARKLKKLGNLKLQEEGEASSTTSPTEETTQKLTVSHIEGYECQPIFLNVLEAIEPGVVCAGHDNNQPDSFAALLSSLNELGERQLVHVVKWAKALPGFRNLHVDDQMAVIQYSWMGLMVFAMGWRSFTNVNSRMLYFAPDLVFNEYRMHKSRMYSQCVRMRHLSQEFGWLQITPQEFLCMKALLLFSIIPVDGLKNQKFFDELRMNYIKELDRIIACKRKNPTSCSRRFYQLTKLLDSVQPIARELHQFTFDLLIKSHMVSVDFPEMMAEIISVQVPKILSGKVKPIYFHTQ
- assay_notes: Competitive binding analysis on baculovirus/Sf9 generated hAR extracts with 3H-DHT tracer
- settings: hAR extract, 1 nM 3H-DHT, one hour at 4° C; mean of multiple tests; read-out: AR Binding IC50
# log scale: pIC50 equals minus log10 of the concentration in mol/L

{"columns": ["molecule", "pIC50"],
 "data": [
  ["COc1ccc(CNC(=O)C(CC(C)C)Oc2ccc(C#N)c(C(F)(F)F)c2)cc1 (centres unmarked) [Example 39]", 7.38]
]}

Recorded pIC50 (molecule CCCOCCCNC(=O)C(CCC)Oc1ccc(C#N)c(C(F)(F)F)c1 (centres unmarked) ): 6.37

Value of pIC50 reported for the molecule CCCC(Oc1ccc(C#N)c(C(F)(F)F)c1)C(=O)Nc1ccc(C)c(O)c1 (centres unmarked) is 6.53

molecule COc1ccccc1CNC(=O)C(CC(C)C)Oc1ccc(C#N)c(C(F)(F)F)c1 (centres unmarked) , pIC50 observed: 7.11

# molecule CCCC(Oc1ccc(C#N)c(C(F)(F)F)c1)C(=O)NCCc1c[nH]c2ccc(OC)cc12 (centres unmarked) ; its pIC50 = 6.95

Short answer for CCSCCNC(=O)C(CC(C)C)Oc1ccc(C#N)c(C(F)(F)F)c1 (centres unmarked) : pIC50 was 6.99

Lookup result for Cc1ccc(NC(=O)C(CC(C)C)Oc2ccc(C#N)c(C(F)(F)F)c2)cc1O (centres unmarked) [Example 88] ; measured pIC50: 6.53

Entry CC(C)CC(Oc1ccc(C#N)c(C(F)(F)F)c1)C(=O)N(Cc1ccccc1)C(C)C (centres unmarked) ; pIC50 = 6.32

get_value(item= CCCC(Oc1ccc(C#N)cc1Cl)C(=O)OCC (centres unmarked) , readout=pIC50) returns 6.46

Value of measured pIC50 for the entry CC(C)CC(Oc1ccc(C#N)c(C(F)(F)F)c1)C(=O)NC(C)c1cccnc1 (centres unmarked) : 6.51
